Item-by-item account of concentration at 3 days
method-summary: Compound analysis: liver, adipose and plasma concentrations 3 days after a single oral dose
Assay type: in vivo, female C57BL/6 mice
measurement-conditions: female, C57BL/6, mouse, in vivo, po, 2.5 µg/kg bw, oral dose 2.5 µg/kg bw; 3 days after single oral dose; read-out: Liver concentration
Protocol: Animals. Eight-week-old female C57BL/6 mice (Harlan laboratories, Venray, the Netherlands) were randomly assigned to treatment groups (six animals per group) and allowed to acclimate for 1.5 weeks. […] Compound analysis. […] Because the samples typically contained high levels of the analytes, only a small fraction was evaporated and analyzed. […] For lipid determination, samples were evaporated to dryness after the extraction step, and the amount of lipids was determined gravimetrically. […]
Express it in ng/g; write the number only.

INSERT INTO results (compound, recorded_number) VALUES
  ('Clc1cc2c(cc1Cl)Oc1c(cc(Cl)c(Cl)c1Cl)O2', 27);

# next compound below
Asked: Which concentration at 3 days reading was recorded for the compound Clc1cc2c(cc1Cl)Oc1cc(Cl)c(Cl)cc1O2 [TCDD, 2,3,7,8-tetrachlorodibenzodioxin, reference compound] ?
Given back: 20
